Tested on: P. falciparum stage V gametocytes
Parameters: BacTiter-Glo ATP luminescence viability of purified stage V gametocytes in 384-well plates, per cent inhibition versus DMSO
EXPERIMENTAL CONDITIONS: 48 h, 5 µM; inhibitor
The campaign covered roughly 13,000 compounds. About 3,200 (25%) showed an effect of 50% or more. The list shows a part of the results.
Let's look at some compounds and their measured % Inhibition.
Return type: number; implicit unit %.

COMPOUND	TARGET SYSTEM	RECORDED VALUE
O=C(Nc1ccccc1)N(Cc1ccc(-c2cccc(CNCc3ccc4c(c3)OCO4)c2)cc1)C1CCN(Cc2ccccc2)CC1	P. falciparum stage V gametocytes	101.1
Cc1cccc2[nH]c(-c3ccc(-c4ccc(CNC(C)C)cc4)cc3)nc12	P. falciparum stage V gametocytes	-47.89
Cc1ccc(NC(=O)NC2CCN(c3ccnc4ccccc34)C2)cc1 (stereo not drawn)	P. falciparum stage V gametocytes	-20.26

Lab note: measured % Inhibition of `CNc1ccc(CNCc2cccc(-c3ccc(-c4nc5c(C)cccc5[nH]4)cc3)c2)cc1` was -24.36

Lab note: measured % Inhibition of `O=C(Nc1ccccc1)N(Cc1ccc(-c2ccc(CNCc3ccc4c(c3)OCO4)cc2)cc1)C1CCN(Cc2ccccc2)CC1` was 20.36

Lab note: measured % Inhibition of `Cc1cc(Nc2cc(Cl)cc(Cl)c2)nc(N)n1` was 13.41

Lab note: measured % Inhibition of `Cc1cccc2[nH]c(-c3ccc(-c4ccc(CNCC(C)C)cc4)cc3)nc12` was 16.22

Lab note: measured % Inhibition of `Nc1nc2c(ncn2OC[C@H](CO)OCP(=O)(O)O)c(=O)[nH]1` was 4.722

Lab note: measured % Inhibition of `Cc1cccc2[nH]c(-c3ccc(-c4ccc(CNCc5ccccc5)cc4)cc3)nc12` was -18.64

###

Tested on: P. falciparum stage V gametocytes
Set-up: BacTiter-Glo ATP luminescence viability of purified stage V gametocytes in 384-well plates, per cent inhibition versus DMSO
EXPERIMENTAL CONDITIONS: 48 h, 5 µM; inhibitor
About 3,200 (25%) of roughly 13,000 compounds showed an effect of 50% or more. The list shows a part of the results.
Let's look at some compounds and their measured % Inhibition.
Return type: number; implicit unit %.

Examples from the recorded data:
COMPOUND	ENDPOINT NAME	RECORDED VALUE
Cc1cc(Cl)c(S(=O)(=O)NC(C)(C)C)cc1OCC(=O)NC1CCCCC1 [TCMDC-124352]	% Inhibition	-13.59
Cc1noc(C)c1-c1cccc(CNCc2ccc(-c3ccc(-c4nc5cc(F)ccc5[nH]4)s3)cc2)c1.O=C(O)C(F)(F)F [TCMDC-133054]	% Inhibition	12.51
CCCCCC(C)C(C)c1cc(O)c2c(c1)OC(C)(C)CC2c1cc[n+]([O-])cc1 (stereo not shown) [TCMDC-131347]	% Inhibition	15.63
O[C@H]1[C@H](OCc2ccc(-c3ccccc3)cc2)CC[C@@H]1N1CCCCC1 [TCMDC-132078]	% Inhibition	-8.021
COc1ccc(CCCON2C(N)=NC(N)=NC2(C)C)cc1 [TCMDC-131693]	% Inhibition	15.23
Cc1cccc2[nH]c(-c3ccc(-c4cccc(NC(=O)Nc5cccc(C#N)c5)c4)cc3)nc12 [TCMDC-133198]	% Inhibition	83.69

Lab note: measured % Inhibition of Cc1cccc2[nH]c(-c3ccc(-c4ccc(NC(=O)Nc5ccc(Cl)cc5)cc4)cc3)nc12 [TCMDC-133184] was -26.89

Lab note: measured % Inhibition of Cc1cccc(NC(c2cccs2)c2c(NC(=O)c3ccccc3)sc(C)c2C)n1 (stereo not shown) [TCMDC-124747] was -63.38

Lab note: measured % Inhibition of N=C(N)c1ccc(C(=O)Nc2cccc(C(=N)N)c2)cc1 [TCMDC-137804] was 7.039

Lab note: measured % Inhibition of COCc1nc(-c2ccccc2)nc(N2CCN(C(=O)NC(C)C)CC2)c1Cc1ccccc1F [TCMDC-124782] was 9.126

###

System: P. falciparum stage V gametocytes
Parameters: BacTiter-Glo ATP luminescence viability of purified stage V gametocytes in 384-well plates, per cent inhibition versus DMSO
EXPERIMENTAL CONDITIONS: 48 h, 5 µM; inhibitor
Out of some 13,000 compounds screened, about 3,200 (25%) showed an effect of 50% or more. Some of the results follow.
ENDPOINT NAME: % Inhibition

COMPOUND	RECORDED VALUE
O=C(NCC1CCN(Cc2cccc(C(F)(F)F)c2)C1)c1cc(-c2cccc(C(F)(F)F)c2)cs1 (stereo not drawn) [TCMDC-134483]	53.9%
Cc1noc(C)c1CN1Cc2ccccc2OC2(CCN(Cc3c[nH]c4cnccc34)CC2)C1 [TCMDC-133381]	19.56%
O=C(Cc1cccc2ccccc12)N1CCc2cc3nccc(N4CCN5CCC[C@H]5C4)c3cc21 [TCMDC-140040]	-3.161%

Lab note: measured % Inhibition of CCOc1ccc(CCC(=O)O)cc1OCC [TCMDC-124302] was 4.043%

Lab note: measured % Inhibition of Cc1cccc(C)c1C1CCN(C2CCC(NC(=O)/C=C/c3ccccc3)CC2)CC1 (stereo not drawn) [TCMDC-132879] was -22.62%

Lab note: measured % Inhibition of O=C(NCC1CCN(Cc2cccc(C(F)(F)F)c2)C1)c1cc(-c2cccc(F)c2)cs1 (stereo not drawn) [TCMDC-134484] was 54.37%

Lab note: measured % Inhibition of Cc1[nH]c(C)c(-c2ccc(Oc3ccc(Cl)cc3)cc2)c(=O)c1C [TCMDC-137378] was 85.12%

Lab note: measured % Inhibition of CN(C)c1ccc(-c2csc(C(=O)NCC3CCN(CC4CCCCC4)C3)c2)cc1.O=C(O)C(F)(F)F (stereo not drawn) [TCMDC-134424] was 97.4%

Lab note: measured % Inhibition of COc1cc(Nc2nccc(N3CCC(NC(=O)C4COc5ccccc5O4)C3)n2)cc(OC)c1OC (stereo not drawn) [TCMDC-133625] was -0.8923%

###

Let's look at some compounds and their measured % Inhibition.
Tested on: P. falciparum stage V gametocytes
Design: BacTiter-Glo ATP luminescence viability of purified stage V gametocytes in 384-well plates, per cent inhibition versus DMSO
EXPERIMENTAL CONDITIONS: 48 h, 5 µM; inhibitor
The whole screen tested about 13,000 compounds, of which about 3,200 (25%) showed an effect of 50% or more. The list shows a part of the results.
Return type: number; implicit unit %.

COMPOUND	% Inhibition (%)
Cc1[nH]c(C)c(-c2ccc(-c3ccc(C(F)F)cc3)nc2)c(=O)c1Cl [TCMDC-132329]	58.86
Cc1[nH]c(C)c(-c2ccc(-c3ccc(OCC(F)(F)F)cc3)nc2)c(=O)c1Cl [TCMDC-132306]	43.23

Lab note: measured % Inhibition of COc1ccc2nccc([C@@H](O)CN3CCC(NC(=O)/C=C/c4cc(F)cc(NC(C)=O)c4)CC3)c2c1 [TCMDC-141030] was -4.964

###

System: P. falciparum stage V gametocytes
Design: BacTiter-Glo ATP luminescence viability of purified stage V gametocytes in 384-well plates, per cent inhibition versus DMSO
EXPERIMENTAL CONDITIONS: 48 h, 5 µM; inhibitor
The campaign covered roughly 13,000 compounds. About 3,200 (25%) showed an effect of 50% or more. The list shows a part of the results.
Let's look at some molecules and their measured % Inhibition.
Return type: number; implicit unit %.

Examples from the recorded data:
CC(=O)Nc1cccc(C(=O)Nc2cccc(-c3ccc(-c4nc5c(C)cccc5[nH]4)cc3)c2)c1 -12.3
CC(=O)N(C)c1cccc(C(=O)Nc2ccc(-c3cccc(-c4nc5c(C)cccc5[nH]4)c3)cc2)c1 -29.92
O=C(NCCCCN1CC=C(c2ccc3c(c2OCC2CC2)CCCC3)CC1)c1ccc(-c2ccc(C(F)(F)F)cc2)cc1 -36.04
CC(=O)Nc1ccc(C(=O)Nc2ccc(-c3cccc(-c4nc5c(C)cccc5[nH]4)c3)cc2)cn1 74.93
CCn1ccc2c(N3CCCCS3(=O)=O)cc(C(=O)N[C@@H](Cc3ccccc3)[C@H](O)CNC(C)(C)CCCC(C)C)cc21 61.66

Lab note: measured % Inhibition of `Clc1ccc(-c2cc(-c3csc(NCCN4CCCCC4)n3)on2)cc1` was -2.378

Lab note: measured % Inhibition of `CCn1ccc2c(N3CCCS3(=O)=O)cc(C(=O)N[C@@H](Cc3ccccc3)[C@H](O)CNC(C)(C)CCCC(C)C)cc21` was 65.79

Lab note: measured % Inhibition of `CC(=O)Nc1ccc(C(=O)Nc2cccc(-c3ccc(-c4nc5c(C)cccc5[nH]4)cc3)c2)cn1` was 57.24
